Tested on: Bowes
runDescription: drug sensitivity score (DSS) (DSS (unitless, 0-50 scale)); higher = more sensitive (stronger viability inhibition); extreme values may be limits of the assay
recordedConditions: 72 h; culture: 2D
Quick rule: drug sensitivity score of at least 2 means label 1, below that means label 0.

Input: Hello, I need to know if Nc1nc2[nH]cc(CCc3ccc(C(=O)N[C@@H](CCC(=O)O)C(=O)O)cc3)c2c(=O)[nH]1 has measured drug sensitivity score not below 2. Thanks!
Output: label 1

Input: Decide: is the reported value of drug sensitivity score for COc1cccc(-c2ccc(NC(=O)C3=C(C(=O)O)CCC3)c(F)c2)c1 equal to or greater than 2?
Output: label 0

Input: Check this molecule for drug sensitivity score at or above 2: Nc1ccn([C@@H]2O[C@H](CO)[C@@H](O)C2(F)F)c(=O)n1
Output: label 0

Input: Please check the record CCn1c(-c2nonc2N)nc2c(C#CC(C)(C)O)ncc(OC[C@H]3CCCNC3)c21 and state if its drug sensitivity score is at or above 2.
Output: label 0

* * *

Test system: Bowes
runDescription: drug sensitivity score (DSS) (DSS (unitless, 0-50 scale)); higher = more sensitive (stronger viability inhibition); extreme values may be limits of the assay
recordedConditions: 72 h; culture: 2D
valueKind: drug sensitivity score
Give only the figure.

Known drug sensitivity score results, listed for orientation:
C[C@@H](Oc1cc(-n2cnc3ccc(CN4CCN(C)CC4)cc32)sc1C(N)=O)c1ccccc1C(F)(F)F : 27.9
Cn1cc(C2=Nc3cc(NC(=O)C(N)C4CCCCC4)cc4c3C2=CNNC4=O)cn1 (centres undefined) : 15.5
C[C@]12CC[C@@H]3c4ccc(O)cc4C[C@@H](CCCCCCCCC[S+]([O-])CCCC(F)(F)C(F)(F)F)[C@H]3[C@@H]1CC[C@@H]2O (some centres undefined) : 0

Moving on to the next compound.
Input: Fill in reported drug sensitivity score for this entry: Cc1ccc(Nc2nccc(N(C)c3ccc4c(C)n(C)nc4c3)n2)cc1S(N)(=O)=O
Output: 2.8

* * *

Below, each entry is listed with its recorded drug sensitivity score.
System: Bowes
runDescription: drug sensitivity score (DSS) (DSS (unitless, 0-50 scale)); higher = more sensitive (stronger viability inhibition); extreme values may be limits of the assay
recordedConditions: 72 h; culture: 2D
Lab note: jot down the number only; don't add units.

Recorded drug sensitivity score, per entry:
Cc1c(-c2c(-c3ccc(F)o3)sc3ncnc(O[C@H](Cc4ccccc4OCc4ccnn4CC(F)(F)F)C(=O)O)c23)ccc(OCCN2CCN(C)CC2)c1Cl : 16.9
CC(C)NC(=O)COc1cccc(-c2nc(Nc3ccc4[nH]ncc4c3)c3ccccc3n2)c1 : 2.6
Cc1cccc(CC(=O)N2CCc3c2ccc(-c2cn(C)c4ncnc(N)c24)c3F)n1 : 0
CC(C)(C)c1cc(NC(=O)Nc2ccc(Oc3ccnc4[nH]c(=O)cnc34)cc2F)n(-c2ccccc2)n1 : 10.7
Cc1ccc(=O)n(-c2ccccc2)c1 : 0

Input: Item Nc1ncnc2c1c(COc1cccc(Cl)c1)nn2C1CCOCC1 : provide drug sensitivity score
Output: 0

Input: Complete the entry with drug sensitivity score for Cc1ccc(C(=O)Nc2ccc(CN3CCN(C)CC3)c(C(F)(F)F)c2)cc1C#Cc1cnc2cccnn12
Output: 9.1

Input: Provide one value: measured drug sensitivity score of CCCc1cc(C)[nH]c(=O)c1CNC(=O)c1cc(-c2ccnc(N3CCN(C)CC3)c2)cc2c1cnn2C(C)C
Output: 0

Input: Annotate the compound O=C(O)c1ccc(-c2c[nH]c3ncc(-c4ccccc4)cc23)cc1C1CCCC1 with its measured drug sensitivity score.
Output: 0

* * *

System: FM-MEL-6
runDescription: drug sensitivity score (DSS) (DSS (unitless, 0-50 scale)); higher = more sensitive (stronger viability inhibition); extreme values may be limits of the assay
recordedConditions: 72 h; culture: 2D
# cutoff 0.6 applies to drug sensitivity score; >= gives 1.0, < gives 0.0

FC(F)(F)c1ccc(/C=C/c2nc(COc3ccc(CCCCn4ccnn4)cc3)co2)cc1 : 0.0
COc1cccc2c1C(=O)c1c(O)c3c(c(O)c1C2=O)C[C@@](O)(C(=O)CO)C[C@@H]3O[C@H]1C[C@H](N)[C@H](O)[C@H](C)O1 : 1.0
COc1c(C)cnc(Cn2cnc3c(Cl)nc(N)nc32)c1C : 1.0
COCC1(CO)C(=O)C2CCN1CC2 (configuration not stated) : 0.0

Input: Answer whether drug sensitivity score of CCN(CC)CCN(Cc1ccc(-c2ccc(C(F)(F)F)cc2)cc1)C(=O)Cn1c(SCc2ccc(F)cc2)nc(=O)c2c1CCC2 is greater than or equal to 0.6.
Output: 0.0

Input: Reported drug sensitivity score reaches at least 0.6 for CC#CC(=O)N1CC[C@@H](n2c(=O)n(-c3ccc(Oc4ccccc4)cc3)c3c(N)ncnc32)C1 ?
Output: 0.0

Input: Quick check: does COc1cc(Nc2ncc3c(n2)-c2ccc(Cl)cc2C(c2c(F)cccc2OC)=NC3)ccc1C(=O)O have drug sensitivity score greater than or equal to 0.6?
Output: 0.0

Input: Hi team, for O=C(CCCCCCC(=O)Nc1ccccc1)NO , is the recorded drug sensitivity score at or above 0.6?
Output: 1.0

Input: hey, is drug sensitivity score for this one >= 0.6? Cc1nc(-c2cn3c(n2)-c2ccc(-c4cnn(C(C)(C)C(N)=O)c4)cc2OCC3)n(C(C)C)n1
Output: 1.0

Input: Does the compound COc1ccc(-c2nc(N3CCOCC3)c3sc(CN(C)c4ncc(C(=O)NO)cn4)cc3n2)cn1 have recorded drug sensitivity score that is 0.6 or more?
Output: 1.0

Input: Reported drug sensitivity score reaches at least 0.6 for NC(=S)N/N=C/c1ncccc1N ?
Output: 1.0

Input: Is drug sensitivity score at least 0.6? Consider COC(=O)N[C@@H](C)CNc1nccc(-c2cn(C(C)C)nc2-c2cc(Cl)cc(NS(C)(=O)=O)c2F)n1
Output: 0.0

Input: Check this compound for drug sensitivity score at or above 0.6: C=CCN(/C=C1/C(=O)O[C@H](COC)[C@@]2(C)C1=C(O)C(=O)C1=C2[C@H](OC(C)=O)C[C@]2(C)C(=O)CC[C@@H]12)CC=C
Output: 0.0

Input: Confirm if drug sensitivity score reported for the compound Cc1noc2c1-c1ccccc1C(c1ccc(Cl)cc1)=N[C@H]2CC(N)=O is 0.6 or above.
Output: 0.0

Input: Decide: is the reported value of drug sensitivity score for C#Cc1cccc(Nc2ncnc3cc4c(cc23)OCCOCCOCCO4)c1 equal to or greater than 0.6?
Output: 1.0

Input: Quick check: does COc1cccc2c1c(O)c(C(=O)N(C)c1ccc(C(F)(F)F)cc1)c(=O)n2C have drug sensitivity score greater than or equal to 0.6?
Output: 0.0

* * *

Below, each entry is listed with its recorded drug sensitivity score.
Test system: Bowes
runDescription: drug sensitivity score (DSS) (DSS (unitless, 0-50 scale)); higher = more sensitive (stronger viability inhibition); extreme values may be limits of the assay
recordedConditions: 72 h; culture: 2D
Hey, just send me the number, nothing else.

CC(C)C[C@H](NC(=O)[C@H](Cc1ccccc1)NC(=O)c1cnccn1)B(O)O [Bortezomib] : 24.9
Cc1ccc(NS(=O)(=O)c2cccc(C#N)c2)c2[nH]cc(C#N)c12 [E7820] : 0
CCOc1ccccc1-n1c(C(C)N2CCN(C(=O)COc3ccc(Cl)cc3)CC2)nc2ccccc2c1=O (stereo not drawn) [Erastin] : 6.2
CCCCOc1nc(N)c2c(n1)N(Cc1cccc(CN3CCCC3)c1)CC(=O)N2 [Vesatolimod] : 0

Input: Output drug sensitivity score of O=C(Nc1cc(Oc2cc(F)c(NC(=O)C3(C(=O)Nc4ccc(F)cc4)CC3)cc2F)ccn1)C1CC1 [Altiratinib]
Output: 6.4

Input: State its drug sensitivity score: Cc1cc(Nc2cc(CN3CCOCC3)c3nc(C)c(Cc4ccc(Cl)cc4F)n3n2)n[nH]1 [Gandotinib]
Output: 4.8

Input: For the molecule CC(C)Nc1cc(-c2c[nH]c(C(=O)N[C@H](CO)c3cccc(Cl)c3)c2)c(Cl)cn1 [Ulixertinib] , give its reported drug sensitivity score.
Output: 4.2

Input: Please report drug sensitivity score for the following molecule: CC(C)n1nc(-c2ccc3oc(N)nc3c2)c2c(N)ncnc21 [Sapanisertib]
Output: 13.2

* * *

Tested on: FM-MEL-6
runDescription: drug sensitivity score (DSS) (DSS (unitless, 0-50 scale)); higher = more sensitive (stronger viability inhibition); extreme values may be limits of the assay
recordedConditions: 72 h; culture: 2D
Quick rule: drug sensitivity score of at least 0.2 means label 1, below that means label 0.

CC(C)c1cc(-c2n[nH]c(=O)n2-c2ccc3c(ccn3C)c2)c(O)cc1O : label 1
COc1cc(Nc2ncc(F)c(Nc3ccc4c(n3)N(COP(=O)(O)O)C(=O)C(C)(C)O4)n2)cc(OC)c1OC : label 1
C=C(c1ccc(C(=O)O)cc1)c1cc2c(cc1C)C(C)(C)CCC2(C)C : label 1
CCn1c(-c2nonc2N)nc2c(C#CC(C)(C)O)ncc(OC[C@H]3CCCNC3)c21 : label 0
N#Cc1ccc(C(c2ccc(C#N)cc2)n2cncn2)cc1 : label 0

Input: Does the compound O=C(O)c1ccc(O)c2ncccc12 have recorded drug sensitivity score that is 0.2 or more?
Output: label 1

Input: Given the entry CO[C@H](C(=O)[C@@H](O)[C@@H](C)O)[C@@H]1Cc2cc3cc(O[C@H]4C[C@@H](O[C@@H]5C[C@@H](O)[C@H](O)[C@@H](C)O5)[C@H](O)[C@@H](C)O4)c(C)c(O)c3c(O)c2C(=O)[C@H]1O[C@H]1C[C@@H](O[C@@H]2C[C@@H](O)[C@@H](O[C@@H]3C[C@](C)(O)[C@H](O)[C@@H](C)O3)[C@@H](C)O2)[C@H](O)[C@@H](C)O1 , answer whether its drug sensitivity score meets or surpasses 0.2.
Output: label 1

Input: Item CNC(=O)c1ccc(C)c(-n2c(C)cc(OCc3ccc(F)cc3F)c(Br)c2=O)c1 with drug sensitivity score of 0.2 or above?
Output: label 0

Input: I'd appreciate it if you could say whether NCC(=O)Nc1ccc(-n2nc(C(F)(F)F)cc2-c2ccc3c(ccc4ccccc43)c2)cc1 has drug sensitivity score at least equal to 0.2.
Output: label 1

Input: Confirm if drug sensitivity score reported for the compound FC(F)c1nc2ccccc2n1-c1nc(N2CCOCC2)nc(N2CCOCC2)n1 is 0.2 or above.
Output: label 1

Input: Form field: drug sensitivity score at least 0.2? Entry: CN1CCN(c2nc(C3=C(c4c[nH]c5ccccc45)C(=O)NC3=O)c3ccccc3n2)CC1
Output: label 1

Source of measurements: the supplement of paper PMC8633005
